tested on: HIV-1NL4-3; test: P4-MAGI assay; assay type: cell-based; conditions: Human immunodeficiency virus 1, 24 h, P4 cells, 24 hour incubation, β-galactosidase expression; read-out: P4-MAGI IC50
pIC50: −log10 of the molar value.
VALUE TYPE: pIC50

molecule="C=C(C)[C@@H]1CC[C@]2(C(=O)NCCc3cccc(S(=O)(=O)NCc4cccc(C(=O)OC)c4)c3)CC[C@]3(C)C(CCC4[C@@]5(C)CC[C@H](O)C(C)(C)C5CC[C@]43C)C12 (stereo partly drawn)" readout_number=6.68
molecule="C=C(C)[C@@H]1CC[C@]2(C(=O)NCc3cccc(-c4cccc(C(=O)NCC(=O)OCC)c4)c3)CC[C@]3(C)C(CCC4[C@@]5(C)CC[C@H](O)C(C)(C)C5CC[C@]43C)C12 (stereo partly drawn)" readout_number=5.19
molecule="C=C(C)[C@@H]1CC[C@]2(C(=O)NCCc3cccc(C(=O)NCc4cccnc4C(=O)OC)c3)CC[C@]3(C)C(CCC4[C@@]5(C)CC[C@H](O)C(C)(C)C5CC[C@]43C)C12 (stereo partly drawn)" readout_number=8.15

Hello, the source for this data is patent US20090275583A1, in case you need it.
